test: Antioxidant activity assessed as ferric ion reducing activity measured as trolox equivalents by FRAP assay; format: functional
The source made the active and inactive calls. The rule behind the calls is not given here.
MEASURED METRIC: Activity

Req: Request the reported Activity associated with `COc1cc([C@H]2OC[C@H]3[C@@H]2CO[C@H]3c2ccc(OC)c(OC)c2)ccc1O`
Resp: 2440 µmol/g

Req: Follow-up item: `O=c1c(O)c(-c2ccc(O)c(O)c2)oc2cc(O)cc(O)c12`
Resp: inactive

Req: Follow-up item: Cc1cc(C(C)(C)C)c(O)c(C(C)(C)C)c1 [BUTYLATED HYDROXYTOLUENE]
Resp: 1750 µmol/g

Req: Follow-up item: COc1cc([C@@H]2OC[C@@H]3[C@H]2CO[C@H]3c2ccc(O)c(OC)c2)ccc1O [(+)-PINORESINOL]
Resp: 2580 µmol/g

Req: Follow-up item: `C[C@H]1[C@H](C)CC[C@]2(C(=O)O)CC[C@]3(C)C(=CC[C@@H]4[C@@]5(C)CC[C@H](O)C(C)(C)[C@@H]5CC[C@]43C)[C@H]12`
Resp: 13.6 µmol/g

// moving on: another record for Activity
Req: Request the reported Activity associated with `C[C@@H]1O[C@@H](OC[C@H]2O[C@@H](Oc3c(-c4ccc(O)c(O)c4)oc4cc(O)cc(O)c4c3=O)[C@H](O)[C@@H](O)[C@@H]2O)[C@H](O)[C@H](O)[C@H]1O`
Resp: inactive
